EXPERIMENTAL_TARGET: PKR R510Q (Homo sapiens, UniProt P30613, R510Q)
Sequence (P30613 whole entry R510Q): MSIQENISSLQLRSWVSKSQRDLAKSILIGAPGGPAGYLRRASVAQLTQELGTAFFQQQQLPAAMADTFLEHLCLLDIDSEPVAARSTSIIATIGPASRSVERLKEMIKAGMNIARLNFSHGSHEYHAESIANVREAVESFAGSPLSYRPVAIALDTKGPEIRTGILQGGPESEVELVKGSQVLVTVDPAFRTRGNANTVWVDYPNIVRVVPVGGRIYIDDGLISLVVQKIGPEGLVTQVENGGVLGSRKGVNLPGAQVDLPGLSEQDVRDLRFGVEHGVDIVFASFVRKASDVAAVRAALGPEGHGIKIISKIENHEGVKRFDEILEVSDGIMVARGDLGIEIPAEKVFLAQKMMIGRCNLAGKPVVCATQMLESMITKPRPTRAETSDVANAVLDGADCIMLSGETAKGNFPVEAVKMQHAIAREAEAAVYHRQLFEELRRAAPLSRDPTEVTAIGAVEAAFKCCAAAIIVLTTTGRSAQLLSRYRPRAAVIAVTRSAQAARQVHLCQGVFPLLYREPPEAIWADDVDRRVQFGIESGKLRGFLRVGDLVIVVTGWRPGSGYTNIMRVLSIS
PROTOCOL_DETAILS: PKR Mutant Assay, AC50 against PKR R510Q
Format: biochemical
CONDITION_LABEL: mutant PKR R510Q enzyme

{"COMPOUND": "O=C(c1ccc(NS(=O)(=O)c2cccc3cccnc23)c(Cl)c1)N1CCC(O)(c2ccccc2Cl)CC1 [Compound 222]", "AC50": "101 to 1000 nM"}
{"COMPOUND": "O=C(c1ccc(NS(=O)(=O)c2cccc3ocnc23)cc1)N1CCC(O)(c2ccccc2Cl)CC1 [Compound 381]", "AC50": "101 to 1000 nM"}
{"COMPOUND": "CC(C)(O)CC1(O)CCN(C(=O)c2ccc(NS(=O)(=O)c3cccc4cccnc34)cc2)CC1 [Compound 241]", "AC50": "1010 to 10000 nM"}
{"COMPOUND": "CC(C)CC1(O)CCN(C(=O)c2ccc(NS(=O)(=O)c3ccnc4scnc34)cc2)CC1 [Compound 314]", "AC50": "> 10000 nM"}
{"COMPOUND": "CC(C)CC1(O)CCN(C(=O)c2ccc(NS(=O)(=O)c3cccc4ncc(N)nc34)cc2)CC1 [Compound 437]", "AC50": "< 100 nM"}
{"COMPOUND": "CC(C)CC1(CO)CCN(C(=O)c2ccc(NS(=O)(=O)c3cccc4cccnc34)cc2)CC1 [Compound 172]", "AC50": "< 100 nM"}
{"COMPOUND": "O=C(c1ccc(NS(=O)(=O)c2cccc3cccnc23)cc1)N1CCC(O)(c2cccnc2C(F)(F)F)CC1 [Compound 159]", "AC50": "101 to 1000 nM"}
{"COMPOUND": "O=C(c1cc(F)c(NS(=O)(=O)c2cccc3cccnc23)cc1F)N1CCC(O)(c2ccccc2)CC1 [Compound 290]", "AC50": "1010 to 10000 nM"}
{"COMPOUND": "O=C(c1ccc(NS(=O)(=O)c2cccc3cccnc23)cc1)N1CCC(O)(c2ccc(F)c(Br)n2)CC1 [Compound 133]", "AC50": "< 100 nM"}
{"COMPOUND": "CC(C)CC1(O)CCN(C(=O)c2ccc(NS(=O)(=O)c3cccc4c3OCO4)cc2)CC1 [Compound 423]", "AC50": "101 to 1000 nM"}
{"COMPOUND": "O=C(c1ccc(NS(=O)(=O)Cc2ccccn2)cc1)N1CCC(O)(c2ccccc2Cl)CC1 [Compound 322]", "AC50": "> 10000 nM"}
{"COMPOUND": "O=C(c1ccc(NS(=O)(=O)c2cccc3scnc23)cc1)N1CCC(O)(CCCC(F)F)CC1 [Compound 389]", "AC50": "< 100 nM"}
{"COMPOUND": "O=C(c1ccc(NS(=O)(=O)c2cccc3cccnc23)cc1)N1CCC(O)(CCCO)CC1 [Compound 253]", "AC50": "1010 to 10000 nM"}
{"COMPOUND": "CC(C)(C)CC1(O)CCN(C(=O)c2ccc(NS(=O)(=O)c3cccc4nccnc34)cc2)CC1 [Compound 130]", "AC50": "< 100 nM"}
{"COMPOUND": "O=C(c1ccc(NS(=O)(=O)c2cccc3cccnc23)cc1)N1CCC(O)(c2ccc(F)cc2Cl)CC1 [Compound 111]", "AC50": "< 100 nM"}
{"COMPOUND": "CC(C)CC1(O)CCN(C(=O)c2ccc(NS(=O)(=O)c3cccc4nccnc34)cc2)CC1 [Compound 160]", "AC50": "< 100 nM"}
{"COMPOUND": "Cc1nc(C(=O)N2CCC(O)(c3ccccc3Cl)CC2)ccc1NS(=O)(=O)c1cccc2cccnc12 [Compound 210]", "AC50": "101 to 1000 nM"}
{"COMPOUND": "O=C(c1ccc(NS(=O)(=O)c2ccc(F)c3cccnc23)cc1)N1CCC(O)(Cc2ccccc2C(F)(F)F)CC1 [Compound 208]", "AC50": "101 to 1000 nM"}
{"COMPOUND": "CC(C)CC1(O)CCN(C(=O)c2ccc(NS(=O)(=O)c3cccc4nc(N)cnc34)cc2)CC1 [Compound 439]", "AC50": "< 100 nM"}
{"COMPOUND": "CCc1ccccc1C1(O)CCN(C(=O)c2ccc(NS(=O)(=O)c3cccc4cccnc34)cc2)CC1 [Compound 127]", "AC50": "< 100 nM"}
{"COMPOUND": "O=C(c1ccc(NS(=O)(=O)c2cccc3cccnc23)cc1)N1CCC(O)(c2ccc(F)cc2)CC1 [Compound 194]", "AC50": "101 to 1000 nM"}
{"COMPOUND": "O=C(c1ccc(NS(=O)(=O)c2cccc3cccnc23)cc1)N1CCC(O)(/C=C/C(F)F)CC1 [Compound 200]", "AC50": "101 to 1000 nM"}
{"COMPOUND": "Cc1nc(F)ccc1C1(O)CCN(C(=O)c2ccc(NS(=O)(=O)c3cccc4cccnc34)cc2)CC1 [Compound 129]", "AC50": "< 100 nM"}
{"COMPOUND": "O=C(c1ccc(NS(=O)(=O)c2cccc3scnc23)cc1)N1CCC(O)(CCC(F)=C(F)F)CC1 [Compound 395]", "AC50": "101 to 1000 nM"}
{"COMPOUND": "N#Cc1cc(NS(=O)(=O)c2cccc3cccnc23)ccc1C(=O)N1CCC(O)(c2ccccc2)CC1 [Compound 261]", "AC50": "101 to 1000 nM"}
{"COMPOUND": "O=C(c1ccc(NS(=O)(=O)c2cccc3scnc23)cc1)N1CCC(O)(c2cn[nH]c2)CC1 [Compound 410]", "AC50": "> 10000 nM"}
{"COMPOUND": "O=C(c1ccc(NS(=O)(=O)c2cccc3cccnc23)cc1)N1CCC(O)(c2ccncc2Cl)CC1 [Compound 161]", "AC50": "101 to 1000 nM"}
{"COMPOUND": "CC(C)CC1(O)CCN(C(=O)c2ccc(NS(=O)(=O)c3cccc4c(O)ncnc34)cc2)CC1 [Compound 388]", "AC50": "< 100 nM"}
{"COMPOUND": "O=C(c1ccc(NS(=O)(=O)c2cccc3c(O)ncnc23)cc1)N1CCC(O)(c2cccc(F)c2F)CC1 [Compound 428]", "AC50": "101 to 1000 nM"}
{"COMPOUND": "Nc1c(O)cccc1S(=O)(=O)Nc1ccc(C(=O)N2CCC(O)(c3ccccc3Cl)CC2)cc1 [Compound 382]", "AC50": "101 to 1000 nM"}

---

EXPERIMENTAL_TARGET: PKR R532W (Homo sapiens, UniProt P30613, R532W)
Sequence (P30613 whole entry R532W): as the sequence (P30613 whole entry R510Q) above, with Q510R, R532W counted along it
PROTOCOL_DETAILS: PKR Mutant Assay, AC50 against PKR R532W
Format: biochemical
CONDITION_LABEL: mutant PKR R532W enzyme

{"SMILES_NOTATION": "O=C(c1ccc(NS(=O)(=O)c2cccc3scnc23)cc1)N1CCC(O)(CCC(F)=C(F)F)CC1", "AC50": "< 100 nM"}
{"SMILES_NOTATION": "CC(C)CC1(O)CCN(C(=O)c2ccc(NS(=O)(=O)c3cccc4snnc34)cc2)CC1", "AC50": "> 10000 nM"}
{"SMILES_NOTATION": "COc1ccccc1C1(O)CCN(C(=O)c2ccc(NS(=O)(=O)c3cccc4cccnc34)cc2)CC1", "AC50": "< 100 nM"}
{"SMILES_NOTATION": "Nc1nc2c(S(=O)(=O)Nc3ccc(C(=O)N4CCC(O)(c5ccccc5Cl)CC4)cc3)cccc2s1", "AC50": "< 100 nM"}

---

EXPERIMENTAL_TARGET: PKR WT (Homo sapiens)
Sequence (P30613 whole entry): as the sequence (P30613 whole entry R510Q) above, with Q510R counted along it
PROTOCOL_DETAILS: PKR WT cell based AC50 assay
CONDITION_LABEL: wild type PKR

{"COMPOUND": "Cc1cc(C(=O)N2CCC(O)(c3ccccc3Cl)CC2)ccc1NS(=O)(=O)c1cccc2nccnc12", "AC50": "< 100 nM"}
{"COMPOUND": "O=C(c1ccc(NS(=O)(=O)c2cccc3scnc23)cc1)N1CCC(O)(Cc2ccccc2C(F)(F)F)CC1 [Compound 125]", "AC50": "< 100 nM"}
{"COMPOUND": "CC(CC1(O)CCN(C(=O)c2ccc(NS(=O)(=O)c3cccc4c(O)ncnc34)cc2)CC1)C(F)(F)F (centres unmarked)", "AC50": "101 to 1000 nM"}
{"COMPOUND": "O=C(c1ccc(NS(=O)(=O)c2cccc3cccnc23)cc1)N1CCC(CO)(Cc2ccccc2)CC1", "AC50": "< 100 nM"}
{"COMPOUND": "COc1cc(NS(=O)(=O)c2cccc3cccnc23)ccc1C(=O)N1CCC(O)(Cc2ccccc2)CC1", "AC50": "101 to 1000 nM"}
{"COMPOUND": "C=C(CC1(O)CCN(C(=O)c2ccc(NS(=O)(=O)c3cccc4scnc34)cc2)CC1)C(F)(F)F", "AC50": "< 100 nM"}
{"COMPOUND": "CC(C)(C)CC1(O)CCN(C(=O)c2ccc(NS(=O)(=O)c3cccc4cccnc34)cc2)CC1", "AC50": "< 100 nM"}
{"COMPOUND": "O=C(c1ccc(NS(=O)(=O)c2cccc3cccnc23)cc1)N1CCC(O)(c2cccc(OC(F)(F)F)c2)CC1", "AC50": "1010 to 10000 nM"}

Each recorded value in this set is attributed to patent US9108921B2.
